Details: in DMSO, 323.15 K
value_type: solubility (mole fraction)

entry_smiles	readout_number
c1ccc(-n2c(-c3cc(-c4nc5ccccc5n4-c4ccccc4)cc(-c4nc5ccccc5n4-c4ccccc4)c3)nc3ccccc32)cc1	0.0032

---

Conditions: in THF, 283.15 K
value_type: solubility (mole fraction)

entry_smiles	value_type	readout_number
c1ccc(-n2c(-c3cc(-c4nc5ccccc5n4-c4ccccc4)cc(-c4nc5ccccc5n4-c4ccccc4)c3)nc3ccccc32)cc1	solubility (mole fraction)	0.00159

---

Conditions: in methanol, 293.15 K

entry_smiles	solubility (mole fraction)
c1ccc(-n2c(-c3cc(-c4nc5ccccc5n4-c4ccccc4)cc(-c4nc5ccccc5n4-c4ccccc4)c3)nc3ccccc32)cc1	0.000259

---

Settings: in chlorobenzene, 323.15 K

entry_smiles	solubility (mole fraction)
c1ccc(-n2c(-c3cc(-c4nc5ccccc5n4-c4ccccc4)cc(-c4nc5ccccc5n4-c4ccccc4)c3)nc3ccccc32)cc1	0.0111

---

Details: in isopropanol, 283.15 K

entry_smiles	solubility (mole fraction)
c1ccc(-n2c(-c3cc(-c4nc5ccccc5n4-c4ccccc4)cc(-c4nc5ccccc5n4-c4ccccc4)c3)nc3ccccc32)cc1	1.11e-05

---

Conditions: in n-butanol, 313.15 K

entry_smiles	solubility (mole fraction)
c1ccc(-n2c(-c3cc(-c4nc5ccccc5n4-c4ccccc4)cc(-c4nc5ccccc5n4-c4ccccc4)c3)nc3ccccc32)cc1	0.00167
